meta.source: paper PMC10215804

SUBJECT OF TEST: E. coli topoIV (Escherichia coli)
Construct: purchased Inspiralis (Norwich, UK)
Sequence (P20083 whole entry): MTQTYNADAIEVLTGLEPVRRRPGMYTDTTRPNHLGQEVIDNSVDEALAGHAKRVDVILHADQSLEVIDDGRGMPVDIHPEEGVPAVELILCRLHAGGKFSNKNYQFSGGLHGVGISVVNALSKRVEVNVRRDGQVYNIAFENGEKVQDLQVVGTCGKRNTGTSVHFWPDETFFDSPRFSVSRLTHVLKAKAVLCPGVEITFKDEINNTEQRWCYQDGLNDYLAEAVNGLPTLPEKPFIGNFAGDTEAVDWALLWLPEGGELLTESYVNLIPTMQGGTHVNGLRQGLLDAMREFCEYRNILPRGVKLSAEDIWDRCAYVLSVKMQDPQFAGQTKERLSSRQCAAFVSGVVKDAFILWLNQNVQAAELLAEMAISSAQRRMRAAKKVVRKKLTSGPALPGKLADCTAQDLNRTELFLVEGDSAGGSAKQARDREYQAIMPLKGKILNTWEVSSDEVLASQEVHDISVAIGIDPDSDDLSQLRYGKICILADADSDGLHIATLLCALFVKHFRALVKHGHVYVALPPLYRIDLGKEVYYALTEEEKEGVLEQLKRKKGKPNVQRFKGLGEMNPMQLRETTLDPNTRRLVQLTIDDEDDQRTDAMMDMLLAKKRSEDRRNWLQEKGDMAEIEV
Sequence (P0AFI2 whole entry): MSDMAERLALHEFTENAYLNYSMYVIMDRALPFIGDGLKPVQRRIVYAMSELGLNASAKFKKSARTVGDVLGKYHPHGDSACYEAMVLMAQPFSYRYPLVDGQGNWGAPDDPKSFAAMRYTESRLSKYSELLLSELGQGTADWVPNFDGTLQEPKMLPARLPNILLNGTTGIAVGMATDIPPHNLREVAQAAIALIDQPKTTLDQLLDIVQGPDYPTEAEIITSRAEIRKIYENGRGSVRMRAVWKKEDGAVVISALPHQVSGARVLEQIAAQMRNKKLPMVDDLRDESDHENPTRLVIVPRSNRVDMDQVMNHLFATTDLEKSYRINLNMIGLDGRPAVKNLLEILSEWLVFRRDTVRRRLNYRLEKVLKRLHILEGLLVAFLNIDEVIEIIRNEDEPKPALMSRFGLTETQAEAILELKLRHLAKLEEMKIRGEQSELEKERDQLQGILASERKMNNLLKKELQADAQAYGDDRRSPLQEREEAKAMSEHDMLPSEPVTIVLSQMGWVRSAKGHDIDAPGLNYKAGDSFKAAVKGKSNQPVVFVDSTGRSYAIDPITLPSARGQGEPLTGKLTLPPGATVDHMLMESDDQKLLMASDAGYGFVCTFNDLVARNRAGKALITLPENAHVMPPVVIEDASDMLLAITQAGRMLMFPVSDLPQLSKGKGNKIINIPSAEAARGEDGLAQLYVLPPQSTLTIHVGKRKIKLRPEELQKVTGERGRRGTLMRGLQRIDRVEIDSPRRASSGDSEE
PROCEDURE SUMMARY: topoIV relaxation inhibition assay (high-throughput plate assay)
Format: biochemical
ENDPOINT: IC50 (nM)
Give bare numbers, in nM.

COc1ccc2nccc(CCN3CCC(NCc4ccc(Br)c(C(F)(F)F)c4)CC3)c2n1 [Compound 12]; 23
COc1ccc2nccc(CCN3CCC(NCc4ccc(N)cc4)CC3)c2n1 [Compound 9]; 5700
COc1ccc2nccc(OCC3CCC(NCc4ccc(C)cc4)CC3)c2n1 (centres unmarked) [Compound 6]; 2890
COc1ccc2nccc(C(O)CC3CCC(NCc4ccc(C)cc4)CC3)c2n1 (centres unmarked) [Compound 8]; 83
COc1ccc2nccc(CCN3CCC(NCc4ccc(C)cc4)CC3)c2n1 [Compound 5]; 89

Let us examine a further case.
Indicate its recorded IC50; the compound in question is COc1ccc2nccc(OCC3CCC(NCc4ccc(C)cc4)CO3)c2n1 (centres unmarked) [Compound 7] 1530

---

System: A. baumannii
PROCEDURE SUMMARY: MIC, broth microdilution
Format: cell-based
DETAILS: Acinetobacter baumannii; Table S3; read-out: MIC (μM) A. baumannii
ENDPOINT: MIC (µM)
Numbers only, in µM.

COc1ccc2nccc(CCN3CCC(NCc4ccc(Br)c(C(F)(F)F)c4)CC3)c2n1; 5.12

Fill in MIC for each of the 5 compounds listed.
1. COc1ccc2nccc(CCN3CCC(NCc4ccc(C)cc4)CC3)c2n1
2. COc1ccc2nccc(OCC3CCC(NCc4ccc(C)cc4)CC3)c2n1 (stereo not drawn)
3. COc1ccc2nccc(OCC3CCC(NCc4ccc(C)cc4)CO3)c2n1 (stereo not drawn)
4. O=c1ccc2ncc(=O)n3c2n1C[C@H]3CN1CCC(NCc2cc3c(cn2)OCCC3)CC1 [Gepo, gepotidacin, reference compound]
5. COc1ccc2nccc(C(O)CC3CCC(NCc4ccc(C)cc4)CC3)c2n1 (stereo not drawn)

[2.56, 164, 164, 20.5, 5.12]

---

PROCEDURE SUMMARY: Metabolic activity assessment (cytotoxicity), CellTiter 96 Aqueous One
Format: cell-based
DETAILS: human, HUVEC cells (ATCC CRL-1730); 72 h treatment; means of three independent measurements ± SD
Field: IC50 at 72 h. Provide a value for each of the compounds that follow.
One number for each entry, in µM.

Known IC50 at 72 h results, listed for orientation:
COc1ccc2nccc(CCN3CCC(NCc4ccc(C)cc4)CC3)c2n1 [Compound 5]; 36.5
COc1ccc2nccc(CCN3CCC(NCc4ccc(N)cc4)CC3)c2n1 [Compound 9]; 34
COc1ccc2nccc(C(O)CC3CCC(NCc4ccc(C)cc4)CC3)c2n1 (stereo not shown) [Compound 8]; 33.1

Let us examine a further case.
Indicate its recorded IC50 at 72 h; the compound in question is COc1ccc2nccc(OCC3CCC(NCc4ccc(C)cc4)CC3)c2n1 (stereo not shown) [Compound 6] 36.6

---

Field: MIC. Provide a value for each of the compounds that follow.
System: MRSA(QA-12.1)
PROCEDURE SUMMARY: MIC, broth microdilution
Assay type: cell-based, S. aureus
DETAILS: Staphylococcus aureus, Table S3, read-out: MIC (μM) MRSA(QA-12.1)
Field: value (include unit after the number)

O=c1ccc2ncc(=O)n3c2n1C[C@H]3CN1CCC(NCc2cc3c(cn2)OCCC3)CC1 [Gepo, gepotidacin, reference compound]; 0.32 µM
COc1ccc2nccc(OCC3CCC(NCc4ccc(C)cc4)CC3)c2n1 (stereo not drawn); 5.12 µM
COc1ccc2nccc(CCN3CCC(NCc4ccc(Br)c(C(F)(F)F)c4)CC3)c2n1; 0.082 µM
COc1ccc2nccc(CCN3CCC(NCc4ccc(C)cc4)CC3)c2n1; 0.041 µM

Fill in MIC for each of the 2 compounds listed.
1. COc1ccc2nccc(C(O)CC3CCC(NCc4ccc(C)cc4)CC3)c2n1 (stereo not drawn)
2. COc1ccc2nccc(OCC3CCC(NCc4ccc(C)cc4)CO3)c2n1 (stereo not drawn)

1. 0.161 µM
2. 1.28 µM

---

SUBJECT OF TEST: S. aureus DNA gyrase (Staphylococcus aureus, UniProt P20831)
Construct: purchased Inspiralis (Norwich, UK)
PROCEDURE SUMMARY: biochemical
DETAILS: supercoiling inhibition; mean of two independent measurements ± SD
ENDPOINT: IC50 (nM)
One number for each entry, in nM.

Fill in IC50 for each of the 6 compounds listed.
1. COc1ccc2nccc(CCN3CCC(NCc4ccc(N)cc4)CC3)c2n1
2. COc1ccc2nccc(OCC3CCC(NCc4ccc(C)cc4)CC3)c2n1 (centres unmarked)
3. COc1ccc2nccc(C(O)CC3CCC(NCc4ccc(C)cc4)CC3)c2n1 (centres unmarked)
4. COc1ccc2nccc(CCN3CCC(NCc4ccc(C)cc4)CC3)c2n1
5. COc1ccc2nccc(CCN3CCC(NCc4ccc(Br)c(C(F)(F)F)c4)CC3)c2n1
6. COc1ccc2nccc(OCC3CCC(NCc4ccc(C)cc4)CO3)c2n1 (centres unmarked)

1380
403
77
145
62
194

---

SUBJECT OF TEST: S. aureus topoIV (Staphylococcus aureus, UniProt P0C1U9)
Construct: purchased Inspiralis (Norwich, UK)
Sequence (P0C1U9 whole entry): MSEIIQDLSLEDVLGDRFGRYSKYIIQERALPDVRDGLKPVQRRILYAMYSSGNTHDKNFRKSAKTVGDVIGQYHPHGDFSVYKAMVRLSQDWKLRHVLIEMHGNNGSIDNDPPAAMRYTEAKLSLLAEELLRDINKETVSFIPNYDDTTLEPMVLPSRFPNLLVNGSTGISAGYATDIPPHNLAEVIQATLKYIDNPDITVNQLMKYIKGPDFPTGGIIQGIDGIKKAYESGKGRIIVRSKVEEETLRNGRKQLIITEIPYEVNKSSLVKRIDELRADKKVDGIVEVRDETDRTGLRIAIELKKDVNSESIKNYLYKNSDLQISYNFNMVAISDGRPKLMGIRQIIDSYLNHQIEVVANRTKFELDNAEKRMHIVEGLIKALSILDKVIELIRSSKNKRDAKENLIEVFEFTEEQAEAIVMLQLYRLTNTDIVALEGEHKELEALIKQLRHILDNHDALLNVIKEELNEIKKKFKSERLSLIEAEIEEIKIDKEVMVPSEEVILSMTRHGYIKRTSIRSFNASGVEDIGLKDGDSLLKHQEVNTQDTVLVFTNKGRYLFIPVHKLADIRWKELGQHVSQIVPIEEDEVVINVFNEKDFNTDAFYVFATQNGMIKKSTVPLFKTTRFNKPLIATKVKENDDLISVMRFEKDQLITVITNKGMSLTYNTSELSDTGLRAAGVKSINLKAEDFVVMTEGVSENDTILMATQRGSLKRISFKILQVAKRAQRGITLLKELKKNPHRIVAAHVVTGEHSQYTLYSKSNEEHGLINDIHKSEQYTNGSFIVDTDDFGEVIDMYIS
Sequence (P0C1S7 whole entry partner): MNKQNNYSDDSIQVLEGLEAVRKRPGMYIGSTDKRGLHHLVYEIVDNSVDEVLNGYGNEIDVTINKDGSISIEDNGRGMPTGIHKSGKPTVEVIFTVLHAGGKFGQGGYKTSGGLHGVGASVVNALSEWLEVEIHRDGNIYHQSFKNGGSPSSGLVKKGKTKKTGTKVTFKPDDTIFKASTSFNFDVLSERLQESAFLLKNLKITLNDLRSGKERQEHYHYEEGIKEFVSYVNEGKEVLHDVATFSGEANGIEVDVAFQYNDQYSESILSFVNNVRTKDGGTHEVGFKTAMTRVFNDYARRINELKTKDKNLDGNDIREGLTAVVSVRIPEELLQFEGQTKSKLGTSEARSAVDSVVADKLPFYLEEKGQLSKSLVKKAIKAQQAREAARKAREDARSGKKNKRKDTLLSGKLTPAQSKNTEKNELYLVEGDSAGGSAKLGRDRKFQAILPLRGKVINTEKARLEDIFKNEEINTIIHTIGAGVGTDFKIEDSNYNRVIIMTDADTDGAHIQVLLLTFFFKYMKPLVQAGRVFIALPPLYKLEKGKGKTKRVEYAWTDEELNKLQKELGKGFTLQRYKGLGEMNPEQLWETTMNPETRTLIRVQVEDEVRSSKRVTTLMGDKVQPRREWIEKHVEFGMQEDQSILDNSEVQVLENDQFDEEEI
PROCEDURE SUMMARY: biochemical
DETAILS: relaxation inhibition; mean of two independent measurements ± SD
Field: IC50. Provide a value for each of the molecules that follow.

COc1ccc2nccc(OCC3CCC(NCc4ccc(C)cc4)CC3)c2n1 (centres unmarked) [Compound 6]; > 100 µM

Fill in IC50 for each of the 5 molecules listed.
1. COc1ccc2nccc(C(O)CC3CCC(NCc4ccc(C)cc4)CC3)c2n1 (centres unmarked) [Compound 8]
2. COc1ccc2nccc(CCN3CCC(NCc4ccc(Br)c(C(F)(F)F)c4)CC3)c2n1 [Compound 12]
3. COc1ccc2nccc(OCC3CCC(NCc4ccc(C)cc4)CO3)c2n1 (centres unmarked) [Compound 7]
4. COc1ccc2nccc(OCC3CCC(NCc4ccc(N)cc4)CO3)c2n1 (centres unmarked) [Compound 11]
5. COc1ccc2nccc(OCC3CCC(NCc4ccc(N)cc4)CC3)c2n1 (centres unmarked) [Compound 10]

["2.5 µM", "0.345 µM", "> 100 µM", "> 100 µM", "> 100 µM"]

Fill in IC50 for each of the 2 molecules listed.
1. COc1ccc2nccc(CCN3CCC(NCc4ccc(N)cc4)CC3)c2n1 [Compound 9]
2. COc1ccc2nccc(CCN3CCC(NCc4ccc(C)cc4)CC3)c2n1 [Compound 5]

1: > 100 µM; 2: 1.23 µM

---

Field: IC50 at 72 h. Provide a value for each of the compounds that follow.
PROCEDURE SUMMARY: Metabolic activity assessment (cytotoxicity), CellTiter 96 Aqueous One
Format: cell-based
DETAILS: human, HepG2 cells (ATCC HB-8065); 72 h treatment; means of three independent measurements ± SD
Numbers only, in µM.

Known IC50 at 72 h results, listed for orientation:
COc1ccc2nccc(C(O)CC3CCC(NCc4ccc(C)cc4)CC3)c2n1 (centres unmarked); 22.3
COc1ccc2nccc(CCN3CCC(NCc4ccc(N)cc4)CC3)c2n1; 26.1
COc1ccc2nccc(OCC3CCC(NCc4ccc(C)cc4)CC3)c2n1 (centres unmarked); 22.5

Fill in IC50 at 72 h for each of the 2 compounds listed.
1. COc1ccc2nccc(CCN3CCC(NCc4ccc(Br)c(C(F)(F)F)c4)CC3)c2n1
2. COc1ccc2nccc(CCN3CCC(NCc4ccc(C)cc4)CC3)c2n1

12
20

---

SUBJECT OF TEST: E. coli DNA gyrase (Escherichia coli, UniProt P0AES4)
Construct: purchased Inspiralis (Norwich, UK)
Sequence (P0AES4 whole entry): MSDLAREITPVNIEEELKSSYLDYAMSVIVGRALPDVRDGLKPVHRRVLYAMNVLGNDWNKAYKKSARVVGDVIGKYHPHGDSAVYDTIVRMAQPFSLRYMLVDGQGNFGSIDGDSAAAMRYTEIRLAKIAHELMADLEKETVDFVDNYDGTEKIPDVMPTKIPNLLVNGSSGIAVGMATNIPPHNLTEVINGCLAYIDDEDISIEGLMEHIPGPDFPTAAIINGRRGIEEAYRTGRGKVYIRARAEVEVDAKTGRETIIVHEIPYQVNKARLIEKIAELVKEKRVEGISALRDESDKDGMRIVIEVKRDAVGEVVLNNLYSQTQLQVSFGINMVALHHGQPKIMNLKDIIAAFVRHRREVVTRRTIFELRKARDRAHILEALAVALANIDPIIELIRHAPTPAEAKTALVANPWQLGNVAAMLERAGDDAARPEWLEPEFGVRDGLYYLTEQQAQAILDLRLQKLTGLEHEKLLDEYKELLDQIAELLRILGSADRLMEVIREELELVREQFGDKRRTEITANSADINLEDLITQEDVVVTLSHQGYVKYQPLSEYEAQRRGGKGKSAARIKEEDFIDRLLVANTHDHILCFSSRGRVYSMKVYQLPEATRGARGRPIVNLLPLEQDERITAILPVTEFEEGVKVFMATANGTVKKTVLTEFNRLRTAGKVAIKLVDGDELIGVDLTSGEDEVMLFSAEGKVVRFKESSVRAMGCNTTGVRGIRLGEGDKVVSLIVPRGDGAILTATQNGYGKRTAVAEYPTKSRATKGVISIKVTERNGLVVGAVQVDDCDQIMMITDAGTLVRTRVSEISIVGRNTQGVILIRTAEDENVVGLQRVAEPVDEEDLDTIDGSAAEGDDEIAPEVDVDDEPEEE
PROCEDURE SUMMARY: DNA gyrase supercoiling inhibition assay (high-throughput plate assay)
Type: biochemical
ENDPOINT: IC50 (nM)
Answers are plain numbers, in nM.

COc1ccc2nccc(C(O)CC3CCC(NCc4ccc(C)cc4)CC3)c2n1 (centres unmarked); 1320
COc1ccc2nccc(OCC3CCC(NCc4ccc(C)cc4)CO3)c2n1 (centres unmarked); 1310
COc1ccc2nccc(OCC3CCC(NCc4ccc(C)cc4)CC3)c2n1 (centres unmarked); 1520
COc1ccc2nccc(CCN3CCC(NCc4ccc(C)cc4)CC3)c2n1; 1020

Let us examine a further case.
Indicate its recorded IC50; the molecule in question is COc1ccc2nccc(CCN3CCC(NCc4ccc(Br)c(C(F)(F)F)c4)CC3)c2n1 84

---

Field: remaining activity at 100 µM. Provide a value for each of the compounds that follow.
SUBJECT OF TEST: human topoisomerase IIα (Homo sapiens)
Construct: purchased Inspiralis (Norwich, UK)
PROCEDURE SUMMARY: human topoisomerase II alpha relaxation high-throughput assay (selectivity)
Type: biochemical
DETAILS: residual activity at 100 µM compound; mean ± SD, two independent experiments; read-out: Human TopoIIα (% RA at 100 µM)
Give bare numbers, in %.

COc1ccc2nccc(OCC3CCC(NCc4ccc(C)cc4)CC3)c2n1 (centres unmarked); 101

Fill in remaining activity at 100 µM for each of the 3 compounds listed.
1. COc1ccc2nccc(OCC3CCC(NCc4ccc(N)cc4)CC3)c2n1 (centres unmarked)
2. COc1ccc2nccc(OCC3CCC(NCc4ccc(N)cc4)CO3)c2n1 (centres unmarked)
3. COc1ccc2nccc(C(O)CC3CCC(NCc4ccc(C)cc4)CC3)c2n1 (centres unmarked)

1. 99
2. 100
3. 100

Fill in remaining activity at 100 µM for each of the 4 compounds listed.
1. COc1ccc2nccc(CCN3CCC(NCc4ccc(Br)c(C(F)(F)F)c4)CC3)c2n1
2. COc1ccc2nccc(OCC3CCC(NCc4ccc(C)cc4)CO3)c2n1 (centres unmarked)
3. COc1ccc2nccc(CCN3CCC(NCc4ccc(N)cc4)CC3)c2n1
4. COc1ccc2nccc(CCN3CCC(NCc4ccc(C)cc4)CC3)c2n1

102
101
100
103
